Data credit: ChEMBL document CHEMBL3576841

- Test system: LNCaP
- PROTOCOL TEXT: Cytotoxicity against human LNCAP cells assessed as inhibition of cell viability at 1 uM after 3 days by trypan blue dye exclusion assay
- Assay type: functional
- TEST SETTINGS: 72 h
OBSERVABLE: inhibition at 1 µM
Returns: string containing the number followed by the unit.

Entry `COc1cc(/C=C/C(=O)CC(=O)/C=C/c2ccc(O)c(OC)c2)ccc1O` has what inhibition at 1 µM?
28.8%

Which measured inhibition at 1 µM value corresponds to `CCCCn1ccnc1/C=C/C(=O)/C=C/c1nccn1CCCC` ?
77.3%

# lookup: inhibition at 1 µM of `Cn1cc(Br)c(/C=C/C(=O)/C=C/c2nn(C)cc2Br)n1`
61.3%

Recorded inhibition at 1 µM of `CCn1c(/C=C/C(=O)/C=C/c2nc3ccccc3n2CC)nc2ccccc21` , please.
74.7%

What value of inhibition at 1 µM has been recorded for this entry: `O=C(/C=C/c1ccc2ccccc2n1)/C=C/c1ccc2ccccc2n1`
9.61%

Give the measured inhibition at 1 µM of `CCCCCCCn1c(/C=C/C(=O)/C=C/c2nc3ccccc3n2CCCCCCC)nc2ccccc21` .
42.1%

Sample `CCCCn1c(/C=C/C(=O)/C=C/c2nc3ccccc3n2CCCC)nc2ccccc21` — what was its inhibition at 1 µM?
68.1%

Item under review: CCC(C)n1c(/C=C/C(=O)/C=C/c2nc3ccccc3n2C(C)CC)nc2ccccc21 (configuration not stated) . Reported inhibition at 1 µM?
70.3%

Would you mind telling me what inhibition at 1 µM value was observed for `CCC(CC)n1ccnc1/C=C/C(=O)/C=C/c1nccn1C(CC)CC` ?
61.4%

Fill blank: measured inhibition at 1 µM of the compound `CC(C)Cn1c(/C=C/C(=O)/C=C/c2nc3ccccc3n2CC(C)C)nc2ccccc21` is ____.
59.3%

Entry under review: `O=C(/C=C/c1ccc(C(F)(F)F)nc1)/C=C/c1ccc(C(F)(F)F)nc1` . Reported inhibition at 1 µM?
22.6%

Fill in the blank: the reported inhibition at 1 µM of `CCCCCn1c(/C=C/C(=O)/C=C/c2nc3ccccc3n2CCCCC)nc2ccccc21` is ____.
33%

Which inhibition at 1 µM reading was recorded for the compound `Cc1nc(C(F)(F)F)c(/C=C/C(=O)/C=C/c2sc(C)nc2C(F)(F)F)s1` ?
64.4%

Entry `O=C(/C=C/c1ccncc1)/C=C/c1ccncc1` has what inhibition at 1 µM?
29.6%

I'd like to know its inhibition at 1 µM. The compound in question is `CC(C)=CCn1ccnc1/C=C/C(=O)/C=C/c1nccn1CC=C(C)C`
51.6%

Look at this compound and give its reported inhibition at 1 µM. `O=C(/C=C/c1cccnc1)/C=C/c1cccnc1`
15.7%

Request the reported inhibition at 1 µM associated with `CCC(CC)n1c(/C=C/C(=O)/C=C/c2nc3ccccc3n2C(CC)CC)nc2ccccc21`
46%

Give the measured inhibition at 1 µM of `CCn1ccnc1/C=C/C(=O)/C=C/c1nccn1CC` .
53.6%

Fill in the blank: the reported inhibition at 1 µM of `CCCCCCCn1ccnc1/C=C/C(=O)/C=C/c1nccn1CCCCCCC` is ____.
52.7%

Query: inhibition at 1 µM; subject: `Cc1csc(/C=C/C(=O)/C=C/c2nc(C)cs2)n1`
59.1%

Given the entry `O=C(/C=C/c1cocn1)/C=C/c1cocn1` , report its measured inhibition at 1 µM.
25.8%

What measured inhibition at 1 µM goes with CCCC(C)n1ccnc1/C=C/C(=O)/C=C/c1nccn1C(C)CCC (configuration not stated) ?
77.1%
